Can you tell me growth for the items I'm about to list?
- Tested on: NCI-H322M lung
- Protocol details: NCI-60 one-dose screen, 48 h (100 = growth as untreated, 0 = no growth, -100 = all killed)
- Experimental parameters: 10 µM unless noted
Compounds without any hit were thinned out: in the full panel of roughly 83,000, 20% have a hit. Calls of active or inactive are those of the source. How the source made its calls: active means growth percent below 10; inactive means the rest.

The reported growth of the compound O=C1NC(=S)S/C1=C\c1cccc([N+](=O)[O-])c1 was 132% (inactive)

The reported growth of the compound CCOC(=O)c1c(Cl)c2c(n1Cc1ccc(OC)cc1)-c1oncc1CCC2 was 95.2% (inactive)

The reported growth of the compound COc1ccc(NC(=O)COc2ccccc2)c(C(N)=O)c1 was 59.3% (inactive)

The reported growth of the compound O=S(=O)(Nc1ccc(Cl)c(Cl)c1)c1ccc(-c2cnc(C3CC3)o2)cc1 was 40.7% (inactive)

The reported growth of the compound COc1ccc(Nc2nc(NCCNc3ccnc4cc(Cl)ccc34)nc(N3CCOCC3)n2)cc1 was 74.5% (inactive)

----------
- Test system: SK-MEL-2 melanoma
- Protocol details: NCI-60 one-dose screen, 48 h (100 = growth as untreated, 0 = no growth, -100 = all killed)
- Experimental parameters: 10 µM unless noted
The panel holds about 83,000 compounds, 20% with a hit somewhere; the sample as a whole holds those more often.
Can you tell me growth for the items I'm about to list?
Response body: numeric value in %, unit text excluded.

The reported growth of the compound CN([N-]C(=O)CC(=O)[N-]N(C)C(=S)c1ccccc1)C(=S)c1ccccc1.[Cu+2] was -90.2

The reported growth of the compound Clc1ccc2c(c1)C[C@H]1C[C@@H](c3cccs3)N2O1 was 113

The reported growth of the compound COc1ccc(/C=C(\C#N)c2ccc(OC)cc2)cc1 was 54.4

The reported growth of the compound CCSc1nnc2c3cc(Br)ccc3n(C)c2n1 was 97.8

The reported growth of the compound C=C(C)CCCC(C)CC#N (stereo unspecified) was 97.4

The reported growth of the compound CN1CCc2c(Sc3ccc(C(=O)NO)cc3)c3ccccc3n2C1 was 39.6

The reported growth of the compound Cn1c(=O)c(S(=O)(=O)c2ccccc2)cc2ccc3c(cnn3-c3ccc(Cl)cc3)c21 was 87.2

The reported growth of the compound COc1cc2cc(Oc3ccc(NC(=O)Nc4ccc(Cl)c(C(F)(F)F)c4)cc3)c(C)nc2cc1OCCN1CCCCC1 was 95.3

The reported growth of the compound CC(C)(C)CC(C)(C)N(CSc1ccc(Cl)cc1)CSc1ccc(Cl)cc1 was 74.4

The reported growth of the compound CC(C)NCC(O)COc1ccc(CCOCC2CC2)cc1 (stereo unspecified) was 109

The reported growth of the compound CN1CCc2cccc3c2C1Cc1ccc(O)c(O)c1-3 (stereo unspecified) was 117

----------
- System: MDA-MB-231 breast
- Protocol details: NCI-60 one-dose screen, 48 h (100 = growth as untreated, 0 = no growth, -100 = all killed)
- Experimental parameters: 10 µM unless noted
This is part of a sample that, as a whole, favours compounds with a hit. Of some 83,000 tested, about 20% had one in any assay.
growth of 50% or higher: met. Under 50%: not met.

Exam item: Could you please find out whether CC1(C)CC(=O)C2=C(C1)Nc1cc3c(cc1C2c1ccc(F)cc1)OCO3 (stereo not given) has growth that meets 50% or exceeds it?
Marked response: met

Exam item: Could you please find out whether CN1CCc2cccc3c2C1Cc1ccc(O)c(O)c1-3 (stereo not given) has growth that meets 50% or exceeds it?
Marked response: met

Exam item: Could you please find out whether O=C1CN2CCC1C/C2=C\c1ccnc2c(Cl)cccc12 (stereo not given) has growth that meets 50% or exceeds it?
Marked response: met

Exam item: Could you please find out whether COCCOC1=C(Cl)C(=O)c2ccccc2C1=O has growth that meets 50% or exceeds it?
Marked response: not met

Exam item: Could you please find out whether COC(=O)[C@@H]1CCCN1C(=O)[C@@H]1CCCN1C(=O)[C@@H](Cc1c[nH]c2ccccc12)NC(=S)Nc1cc(C(F)(F)F)cc(C(F)(F)F)c1 has growth that meets 50% or exceeds it?
Marked response: met

Exam item: Could you please find out whether COc1ccc(-c2csc3c2-n2cccc2C3=O)cc1O has growth that meets 50% or exceeds it?
Marked response: not met

Exam item: Could you please find out whether COc1cc2oc(-c3ccc(O)cc3)cc(=O)c2c(O)c1I has growth that meets 50% or exceeds it?
Marked response: met

Exam item: Could you please find out whether COc1ncnc2c1ncn2C/C(Br)=C(\Br)CCl has growth that meets 50% or exceeds it?
Marked response: not met

Exam item: Could you please find out whether Cc1nc2cc(Nc3nc(Nc4ccc(F)cc4)nc(-c4cccs4)n3)ccc2n1Cc1ccccc1 has growth that meets 50% or exceeds it?
Marked response: met

----------
- Tested on: SF-539 CNS
- Protocol details: NCI-60 one-dose screen, 48 h
- Experimental parameters: 10 µM unless noted
About 83,000 compounds went through this panel and 20% of them were active in at least one assay; those are over-represented in the sample as a whole. Activity calls are given as the source filed them. The calls were made as follows: active = growth percent below 10; inactive = the rest.
Write down the outcome that applies. Available outcomes: active, inactive

Exam item: Look up the recorded call for CCCCc1ccc(NC(=O)C(F)(F)F)cc1 in this test.
Marked response: inactive

Exam item: Look up the recorded call for Cc1ccc2nc(NC(=O)CSC(=S)N3CCN(Cc4ccccc4)CC3)sc2c1 in this test.
Marked response: active

Exam item: Look up the recorded call for CNc1ccc(Br)cc1-c1n[nH]c(=O)[nH]c1=O in this test.
Marked response: inactive

Exam item: Look up the recorded call for CN1CCn2c(c(Sc3ccc(C(=O)NO)cc3)c3ccccc32)C1=O in this test.
Marked response: active

Exam item: Look up the recorded call for NC1=NC(c2ccccc2OS(=O)(=O)c2ccc(Br)cc2)n2c(nc3ccccc32)N1 (stereo unspecified) in this test.
Marked response: inactive

Exam item: Look up the recorded call for COc1ccc(/C=C2\Oc3cc(C)c(Cl)cc3C2=O)cc1OC in this test.
Marked response: inactive

Exam item: Look up the recorded call for COc1ccc(-c2csc3c2-n2cccc2C3=O)cc1O in this test.
Marked response: inactive

Exam item: Look up the recorded call for CCOC(=O)c1cc2c(n(C)c1=O)-c1cnn(-c3ccc(OC)cc3)c1CC2 in this test.
Marked response: inactive

Exam item: Look up the recorded call for O=c1[nH]c(=S)c2c(n1CCCO)CCC2 in this test.
Marked response: inactive

Exam item: Look up the recorded call for COc1cc(Cn2cc(F)c(=O)[nH]c2=O)cc(OC)c1 in this test.
Marked response: inactive

Exam item: Look up the recorded call for CCOC(=O)c1sc(NC(=O)CN2CCC(Cc3ccccc3)CC2)nc1C in this test.
Marked response: inactive

----------
- Tested on: NCI/ADR-RES ovarian
- Protocol details: NCI-60 one-dose screen, 48 h
- Experimental parameters: 10 µM unless noted
- Description: Growth inhibition of the NCI/ADR-RES human […] tumor cell line is measured as a screen for anti-cancer activity. Cells are grown in 96 well plates and exposed to the test compound for 48 hours. Compounds are tested at a single concentration, which is 10^-5 M for most compounds. The reported endpoint is percent growth (GI% or GIPRCNT), where numbers from 0 - 100% represent growth inhibition, and numbers from -100% - 0 represent cell death. For example, a value of 40 represents 60% growth inhibition. […]
About 83,000 compounds went through this panel and 20% of them were active in at least one assay; those are over-represented in the sample as a whole. Activity calls are given as the source filed them. How the source made its calls: active means growth percent below 10; inactive means the rest.
Write down the outcome that applies. Available outcomes: active, inactive

Exam item: Look up the recorded call for COc1cc(-c2nc3ccccc3o2)cc(CN2CCN(c3ccccc3)CC2)c1O in this test.
Marked response: inactive

Exam item: Look up the recorded call for COC(=O)c1c2c(c(C)[n+]([O-])c1C)C(=O)C=C(NCc1cccc(OC)c1)C2=O in this test.
Marked response: active

Exam item: Look up the recorded call for Cc1c(NCC(=O)Nc2nc3ccccc3[nH]2)c(=O)n(-c2ccccc2)n1C in this test.
Marked response: inactive

Exam item: Look up the recorded call for COc1c(O)c2c3c(c1OC)-c1ccccc1CC3N(S(=O)(=O)c1ccc(C)cc1)CC2 (stereo unspecified) in this test.
Marked response: inactive

Exam item: Look up the recorded call for Brc1ccc(Br)nn1 in this test.
Marked response: active

Exam item: Look up the recorded call for Cc1ccc(S(=O)(=O)N2CCc3ccc(O)c4c3C2Cc2cc(Cl)ccc2-4)cc1 (stereo unspecified) in this test.
Marked response: inactive

Exam item: Look up the recorded call for CN([N-]C(=O)CC(=O)[N-]N(C)C(=S)c1ccccc1)C(=S)c1ccccc1.[Cu+2] in this test.
Marked response: active

Exam item: Look up the recorded call for COc1ccc(CSc2nc3cc(OC)c(OC)cc3c(=O)n2-c2ccc(Cl)cc2)cc1 in this test.
Marked response: inactive

Exam item: Look up the recorded call for O=c1c2c(=NCCN3CCCC3)cc3c(=O)n(CCCN4CCOCC4)c(=O)c4c(-c5ccc(CN6CCCC6)cc5)cc(c(O)n1CCCN1CCOCC1)c2c4-3 in this test.
Marked response: active

Exam item: Look up the recorded call for Cc1ccc(N(CSc2ccc(Cl)cc2)CSc2ccc(Cl)cc2)cc1 in this test.
Marked response: inactive

Exam item: Look up the recorded call for O=C1/C(=C/c2ccc([N+](=O)[O-])cc2)Oc2ccc(O)cc21 in this test.
Marked response: inactive

Exam item: Look up the recorded call for COc1cccc(C2CC(=O)Nc3cc4c(cc32)OCO4)c1OC (stereo unspecified) in this test.
Marked response: inactive

Exam item: Look up the recorded call for CCN(CC)c1ccc(/C=C(\C#N)c2cc3ccccc3[nH]2)cc1 in this test.
Marked response: inactive

Exam item: Look up the recorded call for CCCCC(CCCC)(S(=O)(=O)CC)S(=O)(=O)CC in this test.
Marked response: inactive

Exam item: Look up the recorded call for Clc1ccc2c(c1)C[C@H]1C[C@@H](c3cccs3)N2O1 in this test.
Marked response: inactive

Exam item: Look up the recorded call for COc1cc2oc(-c3ccc(O)cc3)cc(=O)c2c(O)c1I in this test.
Marked response: inactive

Exam item: Look up the recorded call for C=CC(=O)N1CC2(CC(n3nc(-c4ccc(Oc5ccccc5)cc4)c4c(N)ncnc43)C2)C1 in this test.
Marked response: inactive

Exam item: Look up the recorded call for O=C1CCC(N2C(=O)c3cccc(NCCOCCOCCNC(=O)c4cc5c(o4)C(=O)c4ccccc4C5=O)c3C2=O)C(=O)N1 (stereo unspecified) in this test.
Marked response: inactive

Exam item: Look up the recorded call for CCCCCCCC/C=C\CCCCCCCCOc1cccc(CC(=O)NCC[N+]2(C)CCOCC2)c1 in this test.
Marked response: inactive

Exam item: Look up the recorded call for COc1cccc(C2C3=C(COC3=O)N(CCO)c3cc4c(cc32)OCO4)c1 (stereo unspecified) in this test.
Marked response: active

Exam item: Look up the recorded call for Cc1ccc2c(c1)c(Sc1ccc(C(=O)NO)cc1)c1n2CN(C)CC1 in this test.
Marked response: inactive

Exam item: Look up the recorded call for Cc1ccccc1-c1cc(-c2ccc(Br)s2)[nH]c(=O)c1C#N in this test.
Marked response: inactive

Exam item: Look up the recorded call for CN1CCN(CCCn2c3c(sc4ncccc43)c(=O)n3nnc(-c4ccccc4)c23)CC1 in this test.
Marked response: active

Exam item: Look up the recorded call for O=c1nc(NO)[nH]c(=O)n1Cc1ccccc1 in this test.
Marked response: inactive

Exam item: Look up the recorded call for O=C1C2CC3C(CC2C(=O)[N]1[Sn]([c]1ccccc1)([c]1ccccc1)[c]1ccccc1)C1(Cl)C(Cl)=C(Cl)C3(Cl)C1(Cl)Cl (stereo unspecified) in this test.
Marked response: active

Exam item: Look up the recorded call for N#Cc1ccc(C(F)(F)F)nc1N1CCC(C(=O)Nc2ccc(Cl)cc2)CC1 in this test.
Marked response: inactive

Exam item: Look up the recorded call for COC(=O)C1C2CC3c4[nH]c5cc(OC)ccc5c4CCN3CC2CC(OC2CCCCO2)C1OC (stereo unspecified) in this test.
Marked response: inactive

Exam item: Look up the recorded call for Cc1ccc(S(=O)(=O)N2CCc3ccc(O)c4c3C2Cc2ccc3c(c2-4)OCO3)cc1 (stereo unspecified) in this test.
Marked response: active

Exam item: Look up the recorded call for O=C(CCCCCCC(=O)Nc1ccc2c(c1)/C(=C/c1ccc[nH]1)C(=O)N2)NO in this test.
Marked response: inactive

Exam item: Look up the recorded call for COCCOC1=C(Cl)C(=O)c2ccccc2C1=O in this test.
Marked response: inactive

Exam item: Look up the recorded call for O=C1c2cc(S(=O)(=O)O)ccc2C(=O)c2c1cccc2[N+](=O)[O-] in this test.
Marked response: inactive

Exam item: Look up the recorded call for Clc1cccc(Cl)c1Nc1ccc2nnc(-c3ccncc3)n2n1 in this test.
Marked response: inactive

Exam item: Look up the recorded call for Cc1nn(-c2ccccc2)c2nc3nc4c(c(N)c3c(-c3ccc(Cl)cc3)c12)CCCC4 in this test.
Marked response: inactive

Exam item: Look up the recorded call for COc1cc(Cn2cc(F)c(=O)[nH]c2=O)cc(OC)c1 in this test.
Marked response: inactive

Exam item: Look up the recorded call for CCOC(=O)c1cn2c3c(cc(F)cc3c1=O)C(CC)c1ccccc1C2 (stereo unspecified) in this test.
Marked response: inactive

Exam item: Look up the recorded call for CCN(CC)c1ccc2c(c1)OS(=O)(=O)N=C2 in this test.
Marked response: inactive

Exam item: Look up the recorded call for Cc1nc2cc(Nc3nc(Nc4ccc(F)cc4)nc(N4CCN(C)CC4)n3)ccc2n1Cc1ccccc1 in this test.
Marked response: inactive

Exam item: Look up the recorded call for O=C(c1cnn2c1NC(c1ccc(F)cc1)C2)N1CCCCC1 (stereo unspecified) in this test.
Marked response: inactive

Exam item: Look up the recorded call for COc1nc2c(cc1S(=O)(=O)c1ccccc1)CCc1c-2cnn1-c1ccccc1Cl in this test.
Marked response: inactive

Exam item: Look up the recorded call for O=[N+]([O-])c1cc2c(cc1Br)-c1ccccc1C2 in this test.
Marked response: inactive

Exam item: Look up the recorded call for COC(=O)c1c2c(c(C)[n+]([O-])c1C)C(=O)C(NCc1ccc(O)cc1)=CC2=O in this test.
Marked response: active
